Experiment: Tmax in monkey at 2 mg/kg, po
Format: ADME, organism-based, Macaca mulatta
Conditions: rhesus monkey, in vivo
ENDPOINT_NAME: Tmax (h)
Kindly provide the numeric value in h only, without the unit symbol.

q: Given the molecule `Cc1nnc(N2CCC(C(=O)N3N=CC[C@H]3c3cc(F)cc(F)c3)CC2)o1` , what is its reported Tmax?
a: 2

----------
Experiment: Volume of distribution at steady state in monkey at 1 mg/kg, iv
Assay type: ADME, organism-based, Macaca mulatta
Settings: rhesus monkey, in vivo, read-out: Vdss
ENDPOINT_NAME: Vd

q: Given the compound `Cc1nnc(N2CCC(C(=O)N3N=CC[C@H]3c3cc(F)cc(F)c3)CC2)o1` , what is its reported Vd?
a: 1.1 L/kg

----------
Assay: Cmax in mouse at 30 mg/kg, po
Assay type: ADME, organism-based
Set-up: dose 30 mg/kg, route oral
Conditions: in vivo
ENDPOINT_NAME: Cmax (ng/mL)
Kindly provide the numeric value in ng/mL only, without the unit symbol.

q: Given the compound `Cc1nnc(N2CCC(C(=O)N3N=CC[C@H]3c3cc(F)cc(F)c3)CC2)o1` , what is its reported Cmax?
a: 5410

----------
Assay: Chromatographic hydrophobicity index, log D of the compound at pH 7.4 by reverse-phase HPLC analysis
Type: physicochemical
Conditions: buffer
ENDPOINT_NAME: chromatographic logD
Hey, just send me the number, nothing else.

// below: answered compounds
compound="CC(C)(C)C(=O)N1N=CCC1c1cc(F)cc(F)c1 (configuration not stated)" measured=6.3
compound=Cc1nnc(N2CCC(C(=O)N3N=CC[C@H]3c3cc(F)cc(F)c3)CC2)o1 measured=3.6
compound=O=C(c1cscn1)N1CCC(C(=O)N2N=CC[C@H]2c2ccccc2)CC1 measured=3

q: Given the compound CCC(=O)N1CCC(C(=O)N2N=CCC2c2ccccc2)CC1 (configuration not stated) , what is its reported chromatographic logD?
a: 3.2

q: Given the compound O=C(c1ccncc1)N1N=CCC1c1ccccc1 (configuration not stated) , what is its reported chromatographic logD?
a: 2.7

q: Given the compound Cc1ccc(C2CC=NN2C(=O)C(C)(C)C)cc1F (configuration not stated) , what is its reported chromatographic logD?
a: 6.6

q: Given the compound O=C(c1ccccn1)N1N=CCC1c1ccccc1 (configuration not stated) , what is its reported chromatographic logD?
a: 2.4

q: Given the compound `O=C(C1CCN(c2ncccn2)CC1)N1N=CC[C@H]1c1ccccc1` , what is its reported chromatographic logD?
a: 4.7

q: Given the compound `N#Cc1cc(N2CCC(C(=O)N3N=CC[C@H]3c3cc(F)cc(F)c3)CC2)ncn1` , what is its reported chromatographic logD?
a: 5

----------
Assay: Volume of distribution at steady state in mouse at 2 mg/kg, iv
Type: ADME, organism-based
Conditions: in vivo, read-out: Vdss
ENDPOINT_NAME: Vd (L/kg)
Kindly provide the numeric value in L/kg only, without the unit symbol.

q: Given the molecule `Cc1nnc(N2CCC(C(=O)N3N=CC[C@H]3c3cc(F)cc(F)c3)CC2)o1` , what is its reported Vd?
a: 1.8

----------
Known Vd of a selection of compounds
Assay: Volume of distribution at steady state in rat at 1 mg/kg, iv
Format: ADME, organism-based
Conditions: in vivo, read-out: Vdss
Kindly provide the numeric value in L/kg only, without the unit symbol.

compound="O=C(c1cocn1)N1CCC(C(=O)N2N=CCC2c2ccccc2)CC1 (centres undefined)" measured=0.98
compound=CC(=O)N1CCC(C(=O)N2N=CC[C@H]2c2ccccc2)CC1 measured=1.7
compound=N#Cc1cc(N2CCC(C(=O)N3N=CC[C@H]3c3cc(F)cc(F)c3)CC2)ncn1 measured=4.6
compound=Cc1nnc(N2CCC(C(=O)N3N=CC[C@H]3c3ccccc3)CC2)o1 measured=1.6
compound="O=C(c1c[nH]nn1)N1CCC(C(=O)N2N=CCC2c2ccccc2)CC1 (centres undefined)" measured=1.3
compound=O=C(c1cnco1)N1CCC(C(=O)N2N=CC[C@H]2c2ccccc2)CC1 measured=2.1

q: Given the compound O=C(c1cn[nH]c1)N1CCC(C(=O)N2N=CCC2c2ccccc2)CC1 (centres undefined) , what is its reported Vd?
a: 1.6

q: Given the compound `Cc1nnc(N2CCC(C(=O)N3N=CC[C@H]3c3cc(F)cc(F)c3)CC2)o1` , what is its reported Vd?
a: 1.3

q: Given the compound `N#Cc1cnc(N2CCC(C(=O)N3N=CC[C@H]3c3cc(F)cc(F)c3)CC2)cn1` , what is its reported Vd?
a: 6.1

Reference source for all entries: ChEMBL document CHEMBL4350963
